Where do these numbers come from? They come from patent US20250270301A1.

Molecular target: T1, full length recombinant human 2N4R tau (human, UniProt P10636 1-758)
T1 construct: bought from rPeptide; pHrodo Red maleimide-labelled where it stands in uptake assays; also called tau1-441; full length tau
T1 sequence (P10636 other isoform, or with tags, fused parts or gaps limits assumed): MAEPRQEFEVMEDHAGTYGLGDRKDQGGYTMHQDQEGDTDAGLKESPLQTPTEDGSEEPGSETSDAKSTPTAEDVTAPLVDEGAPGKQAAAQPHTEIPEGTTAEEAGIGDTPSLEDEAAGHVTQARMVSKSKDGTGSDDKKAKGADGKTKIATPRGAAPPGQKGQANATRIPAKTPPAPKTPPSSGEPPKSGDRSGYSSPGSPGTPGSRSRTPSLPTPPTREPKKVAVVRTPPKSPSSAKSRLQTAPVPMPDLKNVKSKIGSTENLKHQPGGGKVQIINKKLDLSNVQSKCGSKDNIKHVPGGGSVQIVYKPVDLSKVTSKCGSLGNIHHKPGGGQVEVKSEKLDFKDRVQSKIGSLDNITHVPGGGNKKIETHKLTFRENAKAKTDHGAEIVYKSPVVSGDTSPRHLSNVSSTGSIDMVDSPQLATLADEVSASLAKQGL
Experiment: SPR SCK, IgG on Protein A, tau in flow
measured endpoint: Kd (nM)
# unit: nM | format: bare number

Field: example entries. Status: answers known.
#44_VH4VK4_H06-H01/pVL (antibody, V domains shown, also called H06-01/pVL; Clone VH4H_06_H01) VH: QVQLQESGPGLVKPSETLSLTCTVSGIDLSSYAMAWVRQAPGKGLEWIGVIDAAGHTFYASWVKGRFTISKDTSKTTVDLQMTSLTAEDTATYFCARDVGSFDVWGQGTLVTVSS VL: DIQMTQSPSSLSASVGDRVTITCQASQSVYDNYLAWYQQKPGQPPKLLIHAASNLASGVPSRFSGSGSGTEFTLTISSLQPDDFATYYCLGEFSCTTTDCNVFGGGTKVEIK = 3.85
#44_VH4VK4_H15/pVL (antibody, V domains shown, also called Clone VH4_H15; #44_VH4_H15) VH: QVQLQESGPGLVKPSETLSLTCTVSGIDLSSYAMAWVRQAPGKGLEWIGAIDSVGNTFYASWVKGRFTISKDTSKTTVDLQMTSLTAEDTATYFCARDSGAFDPWGQGTLVTVSS VL: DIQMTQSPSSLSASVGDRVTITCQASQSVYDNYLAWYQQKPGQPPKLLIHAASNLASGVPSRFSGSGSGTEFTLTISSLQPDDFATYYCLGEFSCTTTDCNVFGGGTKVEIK = 8.76

Reported Kd of #44_VH4VK4_H08/pVL (antibody, V domains shown, also called Clone VH4_H08; #44_VH4_H08) VH: QVQLQESGPGLVKPSETLSLTCTVSGIDLSSYAMAWVRQAPGKGLEWIGAIDAAGRTFYASWVKGRFTISKDTSKTTVDLQMTSLTAEDTATYFCARDSGAFDPWGQGTLVTVSS VL: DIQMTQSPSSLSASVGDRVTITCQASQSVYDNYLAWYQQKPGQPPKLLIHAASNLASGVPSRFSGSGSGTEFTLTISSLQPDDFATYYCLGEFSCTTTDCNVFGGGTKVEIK : 25.7

Reported Kd of #44_VH4VK4_H19/pVL (antibody, V domains shown, also called Clone VH4_H19; #44_VH4_H19) VH: QVQLQESGPGLVKPSETLSLTCTVSGIDLSSYAMAWVRQAPGKGLEWIGAIDSRGATFYASWVKGRFTISKDTSKTTVDLQMTSLTAEDTATYFCARDSGAFDPWGQGTLVTVSS VL: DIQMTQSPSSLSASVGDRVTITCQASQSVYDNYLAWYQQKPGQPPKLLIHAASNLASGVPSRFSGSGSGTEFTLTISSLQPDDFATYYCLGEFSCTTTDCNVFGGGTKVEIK : 9.72

Reported Kd of #44_VH4VK4_H12/pVL (antibody, V domains shown, also called Clone VH4_H12; #44_VH4_H12) VH: QVQLQESGPGLVKPSETLSLTCTVSGIDLSSYAMAWVRQAPGKGLEWIGAIDARGSTFYASWVKGRFTISKDTSKTTVDLQMTSLTAEDTATYFCARDSGAFDPWGQGTLVTVSS VL: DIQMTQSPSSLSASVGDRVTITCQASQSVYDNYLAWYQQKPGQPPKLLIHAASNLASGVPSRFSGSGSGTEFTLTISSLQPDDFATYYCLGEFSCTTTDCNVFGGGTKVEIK : 6.04
